Listed below: concentration at 0.75 h values for each entry.
- Assay: Verification pharmacokinetic experiment in rats, SPC 60 g crude drug/kg by gavage, UFLC-MS/MS, DAS 2.0
- Assay type: in vivo, rat
- Condition Info: rat, plasma, oral; time 0.75 h; rats p.o. SPC 60 g crude drug/kg; doses of 1-4: 0.124, 0.22, 1.4, 2.62 mg/kg; 5 rats
Give the quantity in ng/mL, number only.

Some compounds with known concentration at 0.75 h results, for comparison:
Q: Recorded concentration at 0.75 h for COc1ccc(-c2coc3c(OC)c(O)ccc3c2=O)cc1 , please?
A: 5.23

Q: Recorded concentration at 0.75 h for COc1cc([C@H]2c3cc(O)c(OC)cc3C[C@@H](CO)[C@@H]2CO)ccc1O , please?
A: 27.6

Q: Recorded concentration at 0.75 h for O=c1c(-c2ccc(O)cc2)coc2cc(O[C@@H]3O[C@H](CO)[C@@H](O)[C@H](O)[C@H]3O)ccc12 , please?
A: 18.4

Could you now look at the following compound, please?
Q: Recorded concentration at 0.75 h for COc1cc(-c2coc3cc(O)ccc3c2=O)ccc1O , please?
A: 6.16

###

- Assay: Verification pharmacokinetic experiment in rats, SPC 60 g crude drug/kg by gavage, UFLC-MS/MS, DAS 2.0
- Type: in vivo, rat
- Condition Info: rat, plasma, oral; time 2 h; rats p.o. SPC 60 g crude drug/kg; doses of 1-4: 0.124, 0.22, 1.4, 2.62 mg/kg; 5 rats
- Protocol: To validate the accuracy of PBPK models in predicting the pharmacokinetics of SPC constituents at different oral doses, the pharmacokinetic behavior of these four constituents from SPC in rats were analyzed by UFLC-MS/MS. The parameters were calculated using Drug and Statistics Software version 2.0, and then these validated values (Val.) were used to check the accuracy of the Calc. values and evaluated by FE. […]
Listed below: concentration at 2 h values for each entry.
Give the quantity in ng/mL, number only.

Some compounds with known concentration at 2 h results, for comparison:
Q: Recorded concentration at 2 h for COc1ccc(-c2coc3c(OC)c(O)ccc3c2=O)cc1 , please?
A: 0.809

Q: Recorded concentration at 2 h for COc1cc(-c2coc3cc(O)ccc3c2=O)ccc1O , please?
A: 2.89

Q: Recorded concentration at 2 h for O=c1c(-c2ccc(O)cc2)coc2cc(O[C@@H]3O[C@H](CO)[C@@H](O)[C@H](O)[C@H]3O)ccc12 , please?
A: 3.16

Could you now look at the following compound, please?
Q: Recorded concentration at 2 h for COc1cc([C@H]2c3cc(O)c(OC)cc3C[C@@H](CO)[C@@H]2CO)ccc1O , please?
A: 7.03

###

- Assay: Verification pharmacokinetic experiment in rats, SPC 60 g crude drug/kg by gavage, UFLC-MS/MS, DAS 2.0
- Assay type: in vivo, rat
- Condition Info: rat, plasma, po, 2.62 mg/kg, statistical moment parameters, DAS 2.0; rats p.o. SPC 60 g crude drug/kg; Mean, 5 rats; read-out: MRT(0-t)
Measurement Kind: MRT last (h)
Give the quantity in h, number only.

Q: Recorded MRT last for COc1cc([C@H]2c3cc(O)c(OC)cc3C[C@@H](CO)[C@@H]2CO)ccc1O , please?
A: 1.48

###

Listed below: AUC(0-inf) values for each entry.
- Assay: Verification pharmacokinetic experiment in rats, SPC 60 g crude drug/kg by gavage, UFLC-MS/MS, DAS 2.0
- Assay type: in vivo, rat
- Condition Info: rat, plasma, po, 2.62 mg/kg, rats, p.o. SPC 60 g crude drug/kg; doses of 1-4: 0.124, 0.22, 1.42, 2.62 mg/kg; n = 5; read-out: AUC0→∞ Val.
Give the quantity in ng·h/mL, number only.

Q: Recorded AUC(0-inf) for COc1cc(-c2coc3cc(O)ccc3c2=O)ccc1O , please?
A: 20

Q: Recorded AUC(0-inf) for O=c1c(-c2ccc(O)cc2)coc2cc(O[C@@H]3O[C@H](CO)[C@@H](O)[C@H](O)[C@H]3O)ccc12 , please?
A: 35.9

Q: Recorded AUC(0-inf) for COc1cc([C@H]2c3cc(O)c(OC)cc3C[C@@H](CO)[C@@H]2CO)ccc1O , please?
A: 59.3

Q: Recorded AUC(0-inf) for COc1ccc(-c2coc3c(OC)c(O)ccc3c2=O)cc1 , please?
A: 15.5

###

- Assay: Verification pharmacokinetic experiment in rats, SPC 60 g crude drug/kg by gavage, UFLC-MS/MS, DAS 2.0
- Assay type: in vivo, rat
- Condition Info: rat, plasma, po, 2.62 mg/kg, compartment model parameters, DAS 2.0; rats p.o. SPC 60 g crude drug/kg; Mean, 5 rats; read-out: t1/2β (converted)
Measurement Kind: half-life (h)
Give the quantity in h, number only.

Q: Recorded half-life for COc1cc([C@H]2c3cc(O)c(OC)cc3C[C@@H](CO)[C@@H]2CO)ccc1O , please?
A: 17.4

###

- Assay: Verification pharmacokinetic experiment in rats, SPC 60 g crude drug/kg by gavage, UFLC-MS/MS, DAS 2.0
- Assay type: in vivo, rat
- Condition Info: rat, plasma, po, 1.4 mg/kg; statistical moment parameters, DAS 2.0; rats p.o. SPC 60 g crude drug/kg; Mean, 5 rats; read-out: CLz/F (converted)
Measurement Kind: CL/F (mL/min/kg)
Give the quantity in mL/min/kg, number only.

Q: Recorded CL/F for O=c1c(-c2ccc(O)cc2)coc2cc(O[C@@H]3O[C@H](CO)[C@@H](O)[C@H](O)[C@H]3O)ccc12 , please?
A: 652

###

- Assay: Verification pharmacokinetic experiment in rats, SPC 60 g crude drug/kg by gavage, UFLC-MS/MS, DAS 2.0
- Format: in vivo, rat
- Condition Info: rat, plasma, oral; time 3 h; rats p.o. SPC 60 g crude drug/kg; doses of 1-4: 0.124, 0.22, 1.4, 2.62 mg/kg; 5 rats
- Procedure: To validate the accuracy of PBPK models in predicting the pharmacokinetics of SPC constituents at different oral doses, the pharmacokinetic behavior of these four constituents from SPC in rats were analyzed by UFLC-MS/MS. The parameters were calculated using Drug and Statistics Software version 2.0, and then these validated values (Val.) were used to check the accuracy of the Calc. values and evaluated by FE. […]
Measurement Kind: concentration at 3 h (ng/mL)
Give the quantity in ng/mL, number only.

Some compounds with known concentration at 3 h results, for comparison:
Q: Recorded concentration at 3 h for COc1cc([C@H]2c3cc(O)c(OC)cc3C[C@@H](CO)[C@@H]2CO)ccc1O , please?
A: 4.27

Q: Recorded concentration at 3 h for O=c1c(-c2ccc(O)cc2)coc2cc(O[C@@H]3O[C@H](CO)[C@@H](O)[C@H](O)[C@H]3O)ccc12 , please?
A: 2.62

Q: Recorded concentration at 3 h for COc1ccc(-c2coc3c(OC)c(O)ccc3c2=O)cc1 , please?
A: 0.809

Could you now look at the following compound, please?
Q: Recorded concentration at 3 h for COc1cc(-c2coc3cc(O)ccc3c2=O)ccc1O , please?
A: 1.75

###

Listed below: time of slight secondary absorption peak values for each entry.
- Assay: Observed pharmacokinetics in rats after oral SPC (previous study)
- Format: in vivo, rat
- Condition Info: p.o. SPC
Give the quantity in h, number only.

Some compounds with known time of slight secondary absorption peak results, for comparison:
Q: Recorded time of slight secondary absorption peak for O=c1c(-c2ccc(O)cc2)coc2cc(O[C@@H]3O[C@H](CO)[C@@H](O)[C@H](O)[C@H]3O)ccc12 , please?
A: 6

Q: Recorded time of slight secondary absorption peak for COc1cc([C@H]2c3cc(O)c(OC)cc3C[C@@H](CO)[C@@H]2CO)ccc1O , please?
A: 6

Q: Recorded time of slight secondary absorption peak for COc1cc(-c2coc3cc(O)ccc3c2=O)ccc1O , please?
A: 6

Could you now look at the following compound, please?
Q: Recorded time of slight secondary absorption peak for COc1ccc(-c2coc3c(OC)c(O)ccc3c2=O)cc1 , please?
A: 3

###

- Assay: Verification pharmacokinetic experiment in rats, SPC 60 g crude drug/kg by gavage, UFLC-MS/MS, DAS 2.0
- Format: in vivo, rat
- Condition Info: rat, plasma, po, 0.124 mg/kg, statistical moment parameters, DAS 2.0; rats p.o. SPC 60 g crude drug/kg; Mean, 5 rats; read-out: Cmax
Measurement Kind: Cmax (ng/mL)
Give the quantity in ng/mL, number only.

Q: Recorded Cmax for COc1cc(-c2coc3cc(O)ccc3c2=O)ccc1O [Constituent 1, 3′-methoxydadizein] , please?
A: 7.18

###

- Assay: Verification pharmacokinetic experiment in rats, SPC 60 g crude drug/kg by gavage, UFLC-MS/MS, DAS 2.0
- Assay type: in vivo, rat
- Condition Info: rat, plasma, po, 0.124 mg/kg, statistical moment parameters, DAS 2.0; rats p.o. SPC 60 g crude drug/kg; Mean, 5 rats; read-out: CLz/F (converted)
Measurement Kind: CL/F (mL/min/kg)
Give the quantity in mL/min/kg, number only.

Q: Recorded CL/F for COc1cc(-c2coc3cc(O)ccc3c2=O)ccc1O [Constituent 1, 3′-methoxydadizein] , please?
A: 103
